Entries with their measured pKi, system Neutrophil collagenase (Homo sapiens):
Give only the number. pKi is defined as minus log10 of concentration in molar units.

Recall and state the measured pKi for CNC(=O)CNC(=O)[C@H](CCCCOCc1ccccc1)CC(=O)NO . 6.77

Recall and state the measured pKi for CNC(=O)[C@H](Cc1c[nH]c2ccccc12)NC(=O)[C@H](C)CC(=O)NO . 5.38

Recall and state the measured pKi for CNC(=O)[C@@H](NC(=O)[C@H](CCCCOCc1ccccc1)CC(=O)NO)C(C)(C)C . 8.33

Recall and state the measured pKi for CCCCC[C@H](CC(=O)NO)C(=O)N[C@H](C(=O)N1CCCC1CO)C(C)C (stereo partly specified) . 6.72

Recall and state the measured pKi for CC[C@H](CC(=O)NO)C(=O)N[C@@H](Cc1c[nH]c2ccccc12)C(=O)NC . 7.00

----------
Entries with their measured pKi, system UniProtKB P08254:
Give only the number. pKi is defined as minus log10 of concentration in molar units.

Please report the measured pKi for CNC(=O)[C@@H](NC(=O)[C@H](CCCCOCc1ccccc1)CC(=O)NO)C(C)(C)C tested on UniProtKB P08254. 7.41

Please report the measured pKi for CNC(=O)[C@H](Cc1ccccc1)NC(=O)[C@H](CCCCCCc1ccccc1)CC(=O)NO tested on UniProtKB P08254. 7.96

Please report the measured pKi for CC[C@H](CC(=O)NO)C(=O)N[C@@H](Cc1c[nH]c2ccccc12)C(=O)NC tested on UniProtKB P08254. 5.57

Please report the measured pKi for CCCCC[C@H](CC(=O)NO)C(=O)N[C@H](C(=O)N1CCCC1CO)C(C)C (some centres not stated) tested on UniProtKB P08254. 5.77

Please report the measured pKi for CNC(=O)[C@H](Cc1c[nH]c2ccccc12)NC(=O)[C@@H](CC(=O)NO)CC(C)C [ILOMASTAT] tested on UniProtKB P08254. 7.34

Please report the measured pKi for CNC(=O)[C@H](Cc1c[nH]c2ccccc12)NC(=O)[C@H](C)CC(=O)NO tested on UniProtKB P08254. 4.40

Please report the measured pKi for CNC(=O)CNC(=O)[C@H](CCCCOCc1ccccc1)CC(=O)NO tested on UniProtKB P08254. 5.46

----------
Protein target, amino acids: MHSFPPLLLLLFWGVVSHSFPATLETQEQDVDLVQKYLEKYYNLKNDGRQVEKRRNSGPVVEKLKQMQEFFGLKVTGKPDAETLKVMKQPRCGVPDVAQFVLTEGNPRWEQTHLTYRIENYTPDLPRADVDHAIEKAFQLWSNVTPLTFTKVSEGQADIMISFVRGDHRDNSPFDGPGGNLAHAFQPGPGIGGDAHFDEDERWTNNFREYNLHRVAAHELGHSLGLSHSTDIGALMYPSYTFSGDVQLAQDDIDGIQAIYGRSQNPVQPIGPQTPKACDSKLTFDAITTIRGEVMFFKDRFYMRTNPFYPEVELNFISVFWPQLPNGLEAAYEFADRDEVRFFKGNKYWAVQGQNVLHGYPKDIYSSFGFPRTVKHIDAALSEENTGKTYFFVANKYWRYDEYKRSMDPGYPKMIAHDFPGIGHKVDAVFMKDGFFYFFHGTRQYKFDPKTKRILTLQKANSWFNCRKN
Kindly state Ki for each of the entries shown.
Reply numerically in nM, unit not repeated.

Recall and state the measured Ki for CC[C@H](CC(=O)NO)C(=O)N[C@@H](Cc1c[nH]c2ccccc12)C(=O)NC . 180

Recall and state the measured Ki for CCCCC[C@H](CC(=O)NO)C(=O)N[C@H](C(=O)N1CCCC1CO)C(C)C (stereo not given in full) . 300

Recall and state the measured Ki for CNC(=O)[C@H](Cc1c[nH]c2ccccc12)NC(=O)[C@H](C)CC(=O)NO . 8500

Recall and state the measured Ki for CNC(=O)[C@H](Cc1ccccc1)NC(=O)[C@H](CCCCCCc1ccccc1)CC(=O)NO . 8400
